src = PubChem BioAssay (NCI)

tested on: SN12C renal
quantity: GI50

Please review the entries below; each comes with its answer.
In: Please provide the recorded GI50 for Cn1c(=O)c(Oc2ccccc2F)cc2cnc(NC3CCOCC3)nc21 , tested on SN12C renal.
Out: > 25 µM

In: Please provide the recorded GI50 for N#Cc1c(-c2ccccc2)cc(-c2ccc(Nc3nc(Nc4ccc(Cl)cc4)nc(Nc4ccc(Cl)cc4)n3)cc2)nc1N , tested on SN12C renal.
Out: 3.37 µM

In: Please provide the recorded GI50 for Clc1ccc2[nH]cc(-c3nc(-c4c[nH]c5ncccc45)cs3)c2c1 , tested on SN12C renal.
Out: 4.78 µM

In: Please provide the recorded GI50 for COc1ccc2c(Nc3ccc(NS(C)(=O)=O)cc3)c3ccccc3nc2c1 , tested on SN12C renal.
Out: 0.487 µM

More entries:
In: Please provide the recorded GI50 for O=c1nc(Nc2cccc(Cl)c2)oc2cc(Cl)oc(=O)c12 , tested on SN12C renal.
Out: 10.4 µM

In: Please provide the recorded GI50 for NC1CCN(c2nc(Nc3cccc(C(F)(F)F)c3)c3c(=O)[nH]ccc3n2)CC1 , tested on SN12C renal.
Out: 1.37 µM

In: Please provide the recorded GI50 for CC(=O)[C@@H]1CCC=C2CC[C@]3(C)[C@@H](CC[C@@H]4[C@@]5(C)CCCNC(C)(C)[C@@H]5CC[C@]43C)[C@H]21 , tested on SN12C renal.
Out: 1.79 µM

In: Please provide the recorded GI50 for Nc1nnc2cc(Cl)ccc2n1 , tested on SN12C renal.
Out: 16 µM

In: Please provide the recorded GI50 for CC(=O)O[C@H]1CC[C@@]2(C)C(=CC[C@H]3[C@@H]4C/C(=C\c5cccc(OCCN6CCOCC6)c5)[C@H](OC(C)=O)[C@@]4(C)CC[C@@H]32)C1 , tested on SN12C renal.
Out: 25 µM

====

Listing: TGI of selected molecules
tested on: SK-OV-3 ovarian; test: NCI tumour cell line growth inhibition, 48 h

Please review the entries below; each comes with its answer.
In: Please provide the recorded TGI for COc1ccccc1-c1cc(=O)c2ccccc2[nH]1 , tested on SK-OV-3 ovarian.
Out: > 100 µM

In: Please provide the recorded TGI for CC(=O)O[C@H]1CC[C@@]2(C)C(=CC[C@H]3C4=CC=C(C(C)=O)[C@@]4(C)CCC32)C1 (some centres undefined) , tested on SK-OV-3 ovarian.
Out: > 100 µM

In: Please provide the recorded TGI for ClC(Cl)(Cl)C1=N[C@H]2[C@H](Br)[C@@H]3O[C@@H](c4ccccc4)[C@H](c4ccccc4)O[C@@H]3[C@H]2O1 , tested on SK-OV-3 ovarian.
Out: 40.5 µM

In: Please provide the recorded TGI for COCCOC(=O)NC(=O)Nc1ccc(/C(=N/O)c2ccc(Cl)cc2)cc1 , tested on SK-OV-3 ovarian.
Out: 25.1 µM

In: Please provide the recorded TGI for CCOc1cc(NC(C)=O)ccc1C(=O)NN1C(=O)C(Oc2ccccc2)C1c1ccccc1 (centres undefined) , tested on SK-OV-3 ovarian.
Out: > 100 µM

In: Please provide the recorded TGI for CCC(=O)C(C)C1=Nc2nnc(CCCCCCCc3nnc4n3C(=O)C(C(C)C(=O)CC)=N4)n2C1=O (centres undefined) , tested on SK-OV-3 ovarian.
Out: > 100 µM

In: Please provide the recorded TGI for C=C1C(=O)O[C@H]2[C@H]1CC/C(COC(=O)NCc1ccc(Cn3c(=O)sn(CCCCl)c3=O)cc1)=C\CC[C@@]1(C)O[C@@H]21 , tested on SK-OV-3 ovarian.
Out: 32.2 µM

In: Please provide the recorded TGI for O=C1Sc2ccc(Br)cc2C(=O)Sc2ccccc21 , tested on SK-OV-3 ovarian.
Out: > 62.9 µM

The record that follows has no TGI shown yet.
In: Please provide the recorded TGI for COC(=O)c1sc(C(=O)OC)c2c1CSC2 , tested on SK-OV-3 ovarian.
Out: > 100 µM

====

tested on: NCI-H226 lung; test: NCI tumour cell line growth inhibition, 48 h
quantity: TGI (µM)
Numbers only here, please. The scale is µM.

In: Please provide the recorded TGI for COc1ccc(-c2cc(/C=C3\C(=O)Nc4ccc(Cl)cc43)[nH]n2)cc1 , tested on NCI-H226 lung.
Out: 28.1

In: Please provide the recorded TGI for C=C1C(=O)OC2CC1C(O)C/C(C)=C/CC/C(C)=C/C(O)CC2C (stereo not given) , tested on NCI-H226 lung.
Out: 24.8

In: Please provide the recorded TGI for Clc1nc(Cl)c(Cl)c(Cl)n1 , tested on NCI-H226 lung.
Out: 42.8

The record that follows has no TGI shown yet.
In: Please provide the recorded TGI for Cc1cc(O)c2c(c1O)C(=O)C13C(=C2O)C(=O)C2C(O)C1C1C(O)C3C(=O)C3=C(O)c4c(O)cc(C)c(O)c4C(=O)C321 (stereo not given) , tested on NCI-H226 lung.
Out: 0.879

====

Listing: TGI of selected compounds
system: CCRF-CEM leukemia; assay: NCI tumour cell line growth inhibition, 48 h
Numbers only here, please. The scale is µM.

Please review the entries below; each comes with its answer.
In: Fill in the blank: the reported TGI of CCOC(=O)Nc1c(C#N)[n+]([O-])c2cc(Cl)c(Cl)cc2[n+]1[O-] is ____.
Out: 22.9

In: Fill in the blank: the reported TGI of ClC(Cl)(Cl)C1=N[C@H]2[C@H](Br)[C@@H]3O[C@@H](c4ccccc4)[C@H](c4ccccc4)O[C@@H]3[C@H]2O1 is ____.
Out: 47.2

The record that follows has no TGI shown yet.
In: Fill in the blank: the reported TGI of COCCOC(=O)NC(=O)Nc1ccc(/C(=N/O)c2ccc(Cl)cc2)cc1 is ____.
Out: 28.1

====

test system: HT29 colon; assay: NCI tumour cell line growth inhibition, 48 h
quantity: TGI

Please review the entries below; each comes with its answer.
In: Fill in the blank: the reported TGI of CNc1ccc(-c2nc3cc(C)ccc3o2)cc1 is ____.
Out: > 100 µM

In: Fill in the blank: the reported TGI of COc1ccc2[nH]c(Cl)c(/C=C3/C(=O)Nc4cc(C)c(OC)cc43)c2c1 is ____.
Out: 15 µM

In: Fill in the blank: the reported TGI of Cn1c(=O)c2c(nc3n(Cc4ccccc4)c(=O)c(NCCBr)cn23)n(C)c1=O is ____.
Out: > 100 µM

In: Fill in the blank: the reported TGI of COC(=O)C1=C(C)NC2(O)C=CC(=O)C3C(=O)N(c4ccccc4)C(=O)C132 (stereo unspecified) is ____.
Out: 70.3 µM

In: Fill in the blank: the reported TGI of O=c1[nH]nc(-c2ccccc2)n1/N=C/c1c[nH]c2ccccc12 is ____.
Out: > 100 µM

More entries:
In: Fill in the blank: the reported TGI of O=C(Nc1c[nH]c(=O)[nH]c1=O)C(Cl)Cl is ____.
Out: > 100 µM

In: Fill in the blank: the reported TGI of CN(C)C(N)=NC#N is ____.
Out: > 100 µM

In: Fill in the blank: the reported TGI of CC1=C[C@H]2c3c(c(O)c(O)c4oc5ccccc5c(=O)c34)[C@H](c3cc(O)c(O)c4oc5ccccc5c(=O)c34)[C@H]2C(C)(C)C1 is ____.
Out: 13.8 µM

In: Fill in the blank: the reported TGI of NCCCn1c2ccccc2c2c3c(c4c(c21)CCC(O)CC4)C(=O)NC3=O (stereo unspecified) is ____.
Out: 4.99 µM

====

Listing: TGI of selected compounds
tested on: OVCAR-4 ovarian; experiment: NCI tumour cell line growth inhibition, 48 h

Please review the entries below; each comes with its answer.
In: Please provide the recorded TGI for Cc1cc(C)c(C[N+](C)(C)C)c(C)c1C , tested on OVCAR-4 ovarian.
Out: > 27.1 µM

In: Please provide the recorded TGI for COC(=O)c1ccccc1C#CC#Cc1ccccc1C(=O)OC , tested on OVCAR-4 ovarian.
Out: > 10 µM

The record that follows has no TGI shown yet.
In: Please provide the recorded TGI for C=C1C(=O)OC2CC1C(O)C/C(C)=C/CC/C(C)=C/C(O)CC2C (configuration not stated) , tested on OVCAR-4 ovarian.
Out: 11.5 µM

====

system: OVCAR-4 ovarian; experiment: NCI tumour cell line growth inhibition, 48 h
Listing: TGI of selected compounds

Please review the entries below; each comes with its answer.
In: Fill in the blank: the reported TGI of O=C(Nc1cccc(C(F)(F)F)c1)O/N=C(/Cl)CCl is ____.
Out: > 100 µM

In: Fill in the blank: the reported TGI of COC(=O)C(C)(N=Cc1ccccc1)c1ccccc1 (configuration not stated) is ____.
Out: > 100 µM

In: Fill in the blank: the reported TGI of O=S(=O)(NCC1CCC(CNc2ccc(Cl)cc2)CC1)c1ccc(-c2ccccc2)cc1 (configuration not stated) is ____.
Out: > 50 µM

In: Fill in the blank: the reported TGI of CCCCNN is ____.
Out: > 100 µM

In: Fill in the blank: the reported TGI of COC1=C(N=[N+]=[N-])C(=O)c2ncccc2C1=O is ____.
Out: 5.7 µM

In: Fill in the blank: the reported TGI of C=C=C(CC)C(C(=O)OC)N(CC)CC (configuration not stated) is ____.
Out: > 100 µM

In: Fill in the blank: the reported TGI of CC(C)[C@@H]1CC[C@@H](C)C[C@H]1OC(=O)/C=C1/C2C=CC(O2)C1C(=O)O[C@@H]1C[C@H](C)CC[C@H]1C(C)C (some centres not stated) is ____.
Out: > 100 µM

In: Fill in the blank: the reported TGI of CN1c2ccccc2N(C)C2C1N(C)c1ccccc1N2C (configuration not stated) is ____.
Out: > 100 µM

In: Fill in the blank: the reported TGI of O=c1cc2ccccc2nn1Cc1ccccc1Cl is ____.
Out: > 100 µM

In: Fill in the blank: the reported TGI of C=CCOc1ccccc1N=N/C(C#N)=N\Nc1ccccc1OCC=C is ____.
Out: > 100 µM

More entries:
In: Fill in the blank: the reported TGI of C=C1C(=O)OC2(C)C3CCC(C3)C12 (configuration not stated) is ____.
Out: > 100 µM

In: Fill in the blank: the reported TGI of CC1(C)N=C(C(N)=O)c2ncn(CCO)c2N1 is ____.
Out: > 100 µM
